- Test system: UACC-62 melanoma
- experimentNotes: NCI-60 one-dose screen, 48 h (100 = growth as untreated, 0 = no growth, -100 = all killed)
- conditionLabel: 10 µM unless noted
This is part of a sample that, as a whole, favours compounds with a hit. Of some 83,000 tested, about 20% had one in any assay.

>  <compound>
CC(C)=CCc1cc2c(cc1O)C1=C(C(=O)C3=C(NCCS3(=O)=O)C1=O)C(C=C(C)C)O2 (stereo unspecified)

>  <target>
UACC-62 melanoma

>  <growth, %>
28.2

$$$$
>  <compound>
CO[C@@H](C)Cn1c(=O)n(C)c2cnc3ccc(-c4cncc(C(C)(C)O)c4)cc3c21

>  <target>
UACC-62 melanoma

>  <growth, %>
-37.6

$$$$
>  <compound>
COc1cc2cc(NCc3ccc(Cl)cc3)nc(C)c2cc1OC

>  <target>
UACC-62 melanoma

>  <growth, %>
8.46

$$$$
>  <compound>
CN1CCC(COc2cnc(-c3cccc(Cn4nc(-c5cccc(C#N)c5)ccc4=O)c3)nc2)CC1

>  <target>
UACC-62 melanoma

>  <growth, %>
95.1

$$$$
>  <compound>
CC(=O)CC1CCCC1c1ccc2ccccc2c1 (stereo unspecified)

>  <target>
UACC-62 melanoma

>  <growth, %>
99.6

$$$$
>  <compound>
CC1(/C=N/NC(N)=S)NC(=O)NC1=O (stereo unspecified)

>  <target>
UACC-62 melanoma

>  <growth, %>
95.6

$$$$

Where these numbers come from: PubChem BioAssay (NCI)
